Reported Cmax is given for each of the following compounds.
- Test Protocol: Cmax in mouse at 3 mg/kg, iv and 10 mg/kg, po
- Format: ADME, organism-based
- Condition Set: in vivo
The reply must contain the numeric value and, after it, the unit.

Completed entries (count: 2):
O=c1cc(Cn2c(C3CCC3)nc3nccnc32)c2ccc(F)c(F)c2[nH]1 : 15000 ng/mL
O=c1cc(Cn2c(C3CCC3)nc3ccccc32)c2ccc(F)c(F)c2[nH]1 : 5700 ng/mL

Input CN(C)c1ccnc2c1nc(C1CCC1)n2Cc1cc(=O)[nH]c2c(F)c(F)ccc12 , output reported Cmax.
400 ng/mL

Values were extracted from ChEMBL document CHEMBL1800057.
